# TARGET UNDER TEST: human catalytic domain HDAC4 protein (Homo sapiens, UniProt P56524, A743G/DEL730-739/DEL742-742)
# EXPERIMENT NOTES: Inhibition of HDAC4 catalytic domain enzymatic activity, Boc-Lys(Tfa)-AMC substrate, fluorescence;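 note: trypsin releases AMC from deacetylated substrate, fluorescence tracks enzyme activity, 15 min reaction at 37 °C, 100% activity defined by DMSO-only control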
# CONDITION CONTEXT: Class IIa selective substrate Boc-Lys(Tfa)-AMC, read-out: Biochemical HDAC-4 IC50
REPORTED METRIC: pIC50
In plain terms, pIC50 is the concentration in mol/L turned into minus its base-10 logarithm.

Please review the entries below; each comes with its answer.
MOLECULE: O=C(NO)[C@@H]1[C@H](c2ccccc2)[C@H]1c1ccn2cc(C(F)(F)F)nc2c1
REPORTED METRIC: pIC50
ASSAY VALUE: 6.64
//
MOLECULE: Cc1ccccc1[C@H]1[C@H](C(=O)NO)[C@@H]1c1ccccc1 (racemic) [Compound 18a]
REPORTED METRIC: pIC50
ASSAY VALUE: 5.76
//
MOLECULE: O=C(NO)[C@H]1[C@H](c2cc(C3CC3)nc(C3CC3)c2)[C@H]1c1ccccc1F
REPORTED METRIC: pIC50
ASSAY VALUE: 6.70
//
MOLECULE: O=C(NO)[C@@H]1[C@H](c2ccccc2)[C@H]1c1ccc2c(c1)OC(F)(F)O2 [Compound 28e]
REPORTED METRIC: pIC50
ASSAY VALUE: 6.92
//
MOLECULE: O=C(NO)[C@@H]1[C@H](c2ccccc2)[C@H]1c1ccc(-c2ccc(-n3c4ccccc4c4ccccc43)cc2)cc1 (racemic) [Compound 54b]
REPORTED METRIC: pIC50
ASSAY VALUE: 5.25

Could you now look at the following molecule, please?
Tell me measured pIC50 for O=C(NO)[C@@H]1[C@H](c2ccccc2)[C@H]1c1ccc(Br)cc1 (racemic) [Compound 16c] please. 6.43

* * *

Recorded IC50 by entry
# Test system: cellular histone deacetylase enzymatic activity in Jurkat E6-1 cells
# EXPERIMENT NOTES: Inhibition of cellular HDAC activity, Boc-Lys(Tfa)-AMC substrate, in Jurkat E6-1 cells
# Type: cell-based
# CONDITION CONTEXT: Homo sapiens, Class IIa selective substrate Boc-Lys(Tfa)-AMC
# value in nM; strip the unit string

The cases that follow already have their IC50 on record.
COMPOUND: O=C(NO)[C@@H]1[C@H](c2ccccc2)[C@H]1c1ccc(-c2cccc(OCc3ccccc3)c2)cc1 [Compound 54a]
ASSAY VALUE: 8850
--
COMPOUND: O=C(NO)[C@@H]1[C@H](c2ccccc2)[C@H]1c1ccc(-c2ccc3c(c2)CN(C2CC2)C3)cc1 (racemic)
ASSAY VALUE: 1790
--
COMPOUND: O=C(NO)[C@@H]1[C@H](c2ccccc2)[C@H]1c1ccc(-c2ccc(-n3c4ccccc4c4ccccc43)cc2)cc1 (racemic) [Compound 54b]
ASSAY VALUE: 50000
--
COMPOUND: O=C(NO)[C@H]1[C@H](c2ccc(NCC(F)(F)F)nc2)[C@H]1c1ccccc1F
ASSAY VALUE: 1410
--
COMPOUND: Cc1ncc(-c2ccc([C@H]3[C@H](C(=O)NO)[C@@H]3c3ccccc3F)cc2)o1 [Compound 75b]
ASSAY VALUE: 470

For the compound O=C(NO)[C@@H]1[C@H](c2ccccc2)[C@H]1c1cccc(Br)c1 (racemic) [Compound 16b] , report IC50. 1410

Give recorded IC50. Cc1cnc(-c2ccc([C@H]3[C@H](C(=O)NO)[C@@H]3c3ccccc3)cc2)s1 440

Indicate its recorded IC50; the compound in question is O=C(NO)[C@@H]1[C@H](c2ccccc2)[C@H]1c1ccc(-c2ccnnc2)cc1 (racemic) [Compound 50g] 660

Please supply the value of reported IC50 for the item O=C(NO)[C@@H]1[C@H](c2cccc(F)c2)[C@H]1c1ccnc(C2CC2)c1 [Compound 100b] 420
